assay: total protein half-life in vivo (active degradation + dilution); higher = more stable protein; settings: E. coli NCM3722 delta-clpP delta-lon delta-hslV; growth: N-lim chemostat; doubling time 6 h
Reported metric: total protein half-life in vivo
Note: a bare number is incomplete; add the unit.

IN: total protein half-life in vivo for `MITIRDVARQAGVSVATVSRVLNNSTLVSADTREAVMKAVSELDYRPNANAQALATQVSDTIGVVVMDVSDAFFGALVKAVDLVAQQHQKYVLIGNSYHEAEKERHAIEVLIRQRCNALIVHSKALSDDELAQFMDNIPGMVLINRVVPGYAHRCVCLDNLSGARMATRMLLNNGHQRIGYLSSSHGIEDDAMRKAGWMSALKEQDIIPPESWIGAGTPDMPGGEAAMVELLGRNLQLTAVFAYNDNMAAGALTALKDNGIAIPLHLSIIGFDDIPIARYTDPQLTTVRYPIASMAKLATELALQGAAGNIDPRASHCFMPTLVRRHSVATRQNAAAITNSTNQAM` ?
OUT: 5.93 h

IN: Repeat with MWSEYSLEVVDAVARNGSFSAAAQELHRVPSAVSYTVRQLEEWLAVPLFERRHRDVELTAAGAWFLKEGRSVVKKMQITRQQCQQIANGWRGQLAIAVDNIVRPERTRQMIVDFYRHFDDVELLVFQEVFNGVWDALSDGRVELAIGATRAIPVGGRYAFRDMGMLSWSCVVASHHPLALMDGPFSDDTLRNWPSLVREDTSRTLPKRITWLLDNQKRVVVPDWESSATCISAGLCIGMVPTHFAKPWLNEGKWVALELENPFPDSACCLTWQQNDMSPALTWLLEYLGDSETLNKEWLREPEETPATGD [P0ACR2]
OUT: 5.69 h

---

assay: total protein half-life in vivo (active degradation + dilution); higher = more stable protein; conditions: wild type E. coli NCM3722; growth: C-lim chemostat; doubling time 3 h
Binary classification by total protein half-life in vivo, with 3 h as an inclusive lower bound for true; all other cases are false.

IN: Test whether the sequence `MKKWAVIISAVGLAFAVSGCSSDYVMATKDGRMILTDGKPEIDDDTGLVSYHDQQGNAMQINRDDVSQIIER` records total protein half-life in vivo of 3 h or higher.
OUT: false

IN: Repeat with `MYPVDLHMHTVASTHAYSTLSDYIAQAKQKGIKLFAITDHGPDMEDAPHHWHFINMRIWPRVVDGVGILRGIEANIKNVDGEIDCSGKMFDSLDLIIAGFHEPVFAPHDKATNTQAMIATIASGNVHIISHPGNPKYEIDVKAVAEAAAKHQVALEINNSSFLHSRKGSEDNCREVAAAVRDAGGWVALGSDSHTAFTMGEFEECLKILDAVDFPPERILNVSPRRLLNFLESRGMAPIAEFADL`
OUT: true

IN: Repeat with `MTSLYLASGSPRRQELLAQLGVTFERIVTGIEEQRQPQESAQQYVVRLAREKARAGVAQTAKDLPVLGADTIVILNGEVLEKPRDAEHAAQMLRKLSGQTHQVMTAVALADSQHILDCLVVTDVTFRTLTDEDIAGYVASDEPLDKAGAYGIQGLGGCFVRKINGSYHAVVGLPLVETYELLSNFNALREKRDKHDG`
OUT: true

IN: Repeat with `MSEALLNAGRQTLMLELQEASRLPERLGDDFVRAANIILHCEGKVVVSGIGKSGHIGKKIAATLASTGTPAFFVHPAEALHGDLGMIESRDVMLFISYSGGAKELDLIIPRLEDKSIALLAMTGKPTSPLGLAAKAVLDISVEREACPMHLAPTSSTVNTLMMGDALAMAVMQARGFNEEDFARSHPAGALGARLLNKVHHLMRRDDAIPQVALTASVMDAMLELSRTGLGLVAVCDAQQQVQGVFTDGDLRRWLVGGGALTTPVNEAMTVGGTTLQSQSRAIDAKEILMKRKITAAPVVDENGKLTGAINLQDFYQAGII`
OUT: true

IN: Repeat with MKKYLALALIAPLLISCSTTKKGDTYNEAWVKDTNGFDILMGQFAHNIENIWGFKEVVIAGPKDYVKYTDQYQTRSHINFDDGTITIETIAGTEPAAHLRRAIIKTLLMGDDPSSVDLYSDVDDITISKEPFLYGQVVDNTGQPIRWEGRASNFADYLLKNRLKSRSNGLRIIYSVTINMVPNHLDKRAHKYLGMVRQASRKYGVDESLILAIMQTESSFNPYAVSRSDALGLMQVVQHTAGKDVFRSQGKSGTPSRSFLFDPASNIDTGTAYLAMLNNVYLGGIDNPTSRRYAVITAYNGGAGSVLRVFSNDKIQAANIINTMTPGDVYQTLTTRHPSAESRRYLYKVNTAQKSYRRR [P0C066]
OUT: true

IN: Repeat with MIPLQHGLILAAILFVLGLTGLVIRRNLLFMLIGLEIMINASALAFVVAGSYWGQTDGQVMYILAISLAAAEASIGLALLLQLHRRRQNLNIDSVSEMRG [P0AFE4]
OUT: true

IN: Repeat with MGLMNAFDSQTEDSSPAIGRNLRSRPLARKKLSEMVEEELEQMIRRREFGEGEQLPSERELMAFFNVGRPSVREALAALKRKGLVQINNGERARVSRPSADTIIGELSGMAKDFLSHPGGIAHFEQLRLFFESSLVRYAAEHATDEQIDLLAKALEINSQSLDNNAAFIRSDVDFHRVLAEIPGNPIFMAIHVALLDWLIAARPTVTDQALHEHNNVSYQQHIAIVDAIRRHDPDEADRALQSHLNSVSATWHAFGQTTNKKK [P0A8W0]
OUT: false

IN: Repeat with `MKKRVYLIAAVVSGALAVSGCTTNPYTGEREAGKSAIGAGLGSLVGAGIGALSSSKKDRGKGALIGAAAGAALGGGVGYYMDVQEAKLRDKMRGTGVSVTRSGDNIILNMPNNVTFDSSSATLKPAGANTLTGVAMVLKEYPKTAVNVIGYTDSTGGHDLNMRLSQQRADSVASALITQGVDASRIRTQGLGPANPIASNSTAEGKAQNRRVEITLSPL`
OUT: false

IN: Repeat with `MRVLGIETSCDETGIAIYDDEKGLLANQLYSQVKLHADYGGVVPELASRDHVRKTVPLIQAALKESGLTAKDIDAVAYTAGPGLVGALLVGATVGRSLAFAWDVPAIPVHHMEGHLLAPMLEDNPPEFPFVALLVSGGHTQLISVTGIGQYELLGESIDDAAGEAFDKTAKLLGLDYPGGPLLSKMAAQGTAGRFVFPRPMTDRPGLDFSFSGLKTFAANTIRDNGTDDQTRADIARAFEDAVVDTLMIKCKRALDQTGFKRLVMAGGVSANRTLRAKLAEMMKKRRGEVFYARPEFCTDNGAMIAYAGMVRFKAGATADLGVSVRPRWPLAELPAA`
OUT: false

---

So I've got a bunch of sequences here, and I need their total protein half-life in vivo values.
assay: total protein half-life in vivo (active degradation + dilution); higher = more stable protein; conditions: wild type E. coli NCM3722; growth: C-lim chemostat; doubling time 12 h
Just the number please, in h, no unit attached.

IN: total protein half-life in vivo for MHVKYLAGIVGAALLMAGCSSSNELSAAGQSVRIVDEQPGAECQLIGTATGKQSNWLSGQHGEEGGSMRGAANDLRNQAAAMGGNVIYGISSPSQGMLSSFVPTDSQIIGQVYKCPN [P0AF70] ?
OUT: 10.7

IN: Repeat with `MRLFNWRRQAVLNAMPLVKPDQVRTPWHEFWRRFRRQHMAMTAALFVILLIVVAIFARWIAPYDAENYFDYDNLNNGPSLQHWFGVDSLGRDIFSRVLVGAQISLAAGVFAVFIGAAIGTLLGLLAGYYEGWWDRLIMRICDVLFAFPGILLAIAVVAVLGSGIANVIIAVAIFSIPAFARLVRGNTLVLKQQTFIESARSIGASDMTVLLRHILPGTVSSIVVFFTMRIGTSIISAASLSFLGLGAQPPTPEWGAMLNEARADMVIAPHVAVFPALAIFLTVLAFNLLGDGLRDALDPKIKG`
OUT: 13.6

IN: Repeat with `MSDQQQPPVYKIALGIEYDGSKYYGWQRQNEVRSVQEKLEKALSQVANEPITVFCAGRTDAGVHGTGQVVHFETTALRKDAAWTLGVNANLPGDIAVRWVKTVPDDFHARFSATARRYRYIIYNHRLRPAVLSKGVTHFYEPLDAERMHRAAQCLLGENDFTSFRAVQCQSRTPWRNVMHINVTRHGPYVVVDIKANAFVHHMVRNIVGSLMEVGAHNQPESWIAELLAAKDRTLAAATAKAEGLYLVAVDYPDRYDLPKPPMGPLFLAD`
OUT: 11.8

IN: Repeat with `MSKVKSITRESWILSTFPEWGSWLNEEIEQEQVAPGTFAMWWLGCTGIWLKSEGGTNVCVDFWCGTGKQSHGNPLMKQGHQMQRMAGVKKLQPNLRTTPFVLDPFAIRQIDAVLATHDHNDHIDVNVAAAVMQNCADDVPFIGPKTCVDLWIGWGVPKERCIVVKPGDVVKVKDIEIHALDAFDRTALITLPADQKAAGVLPDGMDDRAVNYLFKTPGGSLYHSGDSHYSNYYAKHGNEHQIDVALGSYGENPRGITDKMTSADMLRMGEALNAKVVIPFHHDIWSNFQADPQEIRVLWEMKKDRLKYGFKPFIWQVGGKFTWPLDKDNFEYHYPRGFDDCFTIEPDLPFKSFL`
OUT: 11.2

IN: Repeat with MLYVIYAQDKADSLEKRLSVRPAHLARLQLLHDEGRLLTAGPMPAVDSNDPGAAGFTGSTVIAEFESLEAAQAWADADPYVAAGVYEHVSVKPFKKVF [P0AB55]
OUT: 9.37

IN: Repeat with `MLKLTDITWLYHHLPMRFSLTVERGEQVAILGPSGAGKSTLLNLIAGFLTPASGSLTIDGVDHTTMPPSRRPVSMLFQENNLFSHLTVAQNIGLGLNPGLKLNAVQQGKMHAIARQMGIDNLMARLPGELSGGQRQRVALARCLVREQPILLLDEPFSALDPALRQEMLTLVSTSCQQQKMTLLMVSHSVEDAARIATRSVVVADGRIAWQGMTNELLSGKASASALLGITG`
OUT: 10.9
